experiment: Liver microsomal stability, dog; details: male, Beagle, microsomes, Half-life, Control compound, Dog liver microsomes
property: half-life (min)
Please respond with the number in min and leave the unit unwritten.

Request the reported half-life associated with C[C@]12CC[C@H]3[C@@H](CCC4=CC(=O)CC[C@@]43C)[C@@H]1CC[C@@H]2O [Testosterone, testosterone, reference compound]
33

###

Reported % Remaining of Initial, 20 min by item:
test: in vitro; settings: male, CD-1, mouse, microsomes, 20 min, 1 μM
Numeric answer only, unit % assumed.

Value lookup for % Remaining of Initial, 20 min; key = CC/C=C\C/C=C\C/C=C\C/C=C\C/C=C\CCCC(=O)OCCNC(=O)CCCCCCCCCCCCCCC [Compound I-5]
57

Okay, now this molecule:
% Remaining of Initial, 20 min for CCCCC/C=C\C/C=C\CCCCCCCC(=O)OCCNC(=O)CCCCCCCCCCCCCCC [Compound I-6] ?
74

###

experiment: in vitro; conditions: both, human, s9, 20 min, 1 μM
property: % Remaining of Initial (n = 1), 20 min (%)
Answer with a number only, understood to be in %.

See these solved cases before continuing.
Reported % Remaining of Initial (n = 1), 20 min for CCCCCCCCCCCCCCCC(=O)NCCOC(=O)CCC : what is it?
41

Entry under review: CCCCCCCCCCCCCCCC(=O)NCCOC(=O)CCC(=O)OCC(O)CO (stereo not drawn) . Reported % Remaining of Initial (n = 1), 20 min?
5.7

We now examine a further molecule.
Entry under review: CCCCCCCCCCCCCCCC(=O)NCCOC(=O)CCC(=O)OCC(COC(=O)CCCCCCC)OC(=O)CCCCCCC (stereo not drawn) [Compound I-3, PEA-Succinate-Glycerol-Di-Caprylic] . Reported % Remaining of Initial (n = 1), 20 min?
86

###

assay: Pharmacokinetics of PEA after intravenous administration in male Sprague-Dawley rats; format: in vivo, Sprague-Dawley rat; details: male, Sprague-Dawley, rat, in vivo, iv, 1 mg/kg, Plasma concentration of PEA, individual rats
property: concentration at 0.25 hr (ng/mL)
Reply numerically in ng/mL, unit not repeated.

# input compound: CCCCCCCCCCCCCCCC(=O)NCCO [PEA, palmitoylethanolamide] ; wanted: its concentration at 0.25 hr
47.2

###

Items are presented alongside their recorded half-life at 1 μM.
assay: in vitro; conditions: male, CD-1, mouse, s9, Half-life (min)
Quick note: give the figure in min, leave out the unit.

// lookup half-life at 1 μM for CCCCCCCCCCCCCCCC(=O)NCCOC(=O)CCC(=O)OCC(COC(=O)CCCCCCC)OC(=O)CCCCCCC (centres unmarked) [Compound I-3, PEA-Succinate-Glycerol-Di-Caprylic]
33

---
What does the record list as half-life at 1 μM for CCCCCCCCCCCCCCCC(=O)NCCOC(=O)CCC(=O)OCC(O)CO (centres unmarked) ?
13

###

assay: in vitro; conditions: male, CD-1, mouse, s9, 0.5 h, 1 μM
Entries and their % Remaining of Initial (n = 1), 30 min values follow.
Your answer is read as %, so omit the unit and give the number.

Use the examples below as a reference point.
// returns reported % Remaining of Initial (n = 1), 30 min for input CCCCCCCCCCCCCCCC(=O)NCCOC(=O)CCC(=O)OCC(COC(=O)CCCCCCC)OC(=O)CCCCCCC (stereo not drawn) [Compound I-3, PEA-Succinate-Glycerol-Di-Caprylic]
49

Value lookup for % Remaining of Initial (n = 1), 30 min; key = CCCCCCCCCCCCCCCC(=O)NCCOC(=O)CCC(=O)OCC(O)CO (stereo not drawn) [Compound I-9]
21

Query compound follows.
Which % Remaining of Initial (n = 1), 30 min is listed for CCCCCCCCCCCCCCCC(=O)NCCOC(=O)CCC(=O)OC[C@H]1O[C@@](CO)(O[C@H]2O[C@H](CO)[C@@H](O)[C@H](O)[C@H]2O)[C@@H](O)[C@@H]1O [Compound I-7] ?
27
